Attribution: PubChem BioAssay

Would you mind telling me the reported composite z-score of each entry?
biological target: Torsin-1A-interacting protein 2 (Homo sapiens) (UniProt Q8NFQ8); assay: LULL1 binders on small-molecule microarray, primary screen, cell lysate, human LULL1 lysate, 635/667 nm fluorescence (AID 1092); details: hLULL1 lysate binding, 635 nm fluorescence, higher = more signal;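 also: probe is lysate of COS7 cells overexpressing human LULL1; score merges per-feature 667 nm fluorescence with signal-to-noise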
Sequence (Q8NFQ8 whole entry, looked up): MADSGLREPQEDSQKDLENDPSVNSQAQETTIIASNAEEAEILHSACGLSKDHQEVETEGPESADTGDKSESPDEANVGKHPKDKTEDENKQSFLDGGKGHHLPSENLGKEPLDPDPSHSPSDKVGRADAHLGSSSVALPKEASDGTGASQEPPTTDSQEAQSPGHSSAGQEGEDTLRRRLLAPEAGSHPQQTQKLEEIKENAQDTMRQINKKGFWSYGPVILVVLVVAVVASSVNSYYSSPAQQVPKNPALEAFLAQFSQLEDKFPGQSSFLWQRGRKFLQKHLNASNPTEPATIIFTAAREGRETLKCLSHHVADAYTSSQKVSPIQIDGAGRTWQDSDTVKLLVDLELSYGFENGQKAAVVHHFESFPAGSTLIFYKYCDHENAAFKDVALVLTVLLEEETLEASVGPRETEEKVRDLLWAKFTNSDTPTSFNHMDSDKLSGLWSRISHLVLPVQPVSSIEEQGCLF
Answers are plain numbers.

Look over these answered cases.
compound: COCCOC(=O)N1C(=O)[C@@]2(c3cc(C#CC4=CCCCC4)ccc31)[C@H](C(=O)NC[C@H](O)c1ccccc1)[C@H]1C(=O)O[C@H](c3ccccc3)[C@H](c3ccccc3)N1[C@@H]2c1ccc(O)cc1
numeric-value: 2.08
--
compound: CCCCC(CC)C(O)C1C=CC2C(=O)N(c3ccccc3)C(=O)C2N1Nc1ccccc1 (centres undefined)
numeric-value: 2.94
--
compound: CC(C)c1ccc(NN2C(C(O)c3c(F)cccc3Cl)C=CC3C(=O)N(c4ccccc4)C(=O)C32)cc1 (centres undefined)
numeric-value: 3

// input: 8 compounds below; output: composite z-score for each
1. O=C1O[C@H](c2ccccc2)[C@H](c2ccccc2)N2[C@H]1[C@@H](C(=O)NC[C@H](O)c1ccccc1)[C@]1(C(=O)Nc3ccc(C#CCCO)cc31)[C@H]2c1ccc(O)cc1
2. CC(=O)NCCCC[C@@H]1NC(=O)[C@@H]2C[C@H](C(=O)NCCCCN(C)C)[C@H](c3ccc(O)cc3)N2C1=O
3. COC(=O)C[C@@H]1C[C@H](C)[C@]2(O1)C(=O)N(Cc1ccccc1)c1ccc(NC(C)=O)cc12
4. CC(C)(C)N1CC=CC23O[C@@H]4/C=C\CCCOC(=O)C4[C@H]2C(=O)N(CCO)[C@@H]3C1=O (some centres undefined)
5. COC(=O)[C@@]1(Cc2ccc(OC)cc2)[C@H]2c3cc(C(=O)N4CCCC4)n(Cc4ccccn4)c3C[C@H]2CN1C(=O)c1ccccc1
6. COCCOC(=O)N1C(=O)[C@@]2(c3cc(C#CCNC(N)=O)ccc31)[C@H](C(=O)N1CCc3cc(OC)c(OC)cc3C1)[C@H]1C(=O)O[C@H](c3ccccc3)[C@H](c3ccccc3)N1[C@@H]2c1ccc(OCCO)cc1
7. CCOC(=O)[C@H]1C/C=C/C[C@H](C(=O)OCC)C(=O)O[C@H]2[C@@H](OC)O[C@H](CO)[C@@H](OC(=O)Nc3ccc4c(c3)OCO4)[C@@H]2OC1=O
8. COCCOC(=O)N1C(=O)[C@@]2(c3ccccc31)[C@H](c1ccc(O)cc1)N1[C@H](c3ccccc3)[C@H](c3ccccc3)OC(=O)[C@H]1[C@@H]2C(=O)N1CCc2cc(OC)c(OC)cc2C1

Reply text:
-0.217
1.65
0.053
1.94
3.86
0.277
2.35
1.17
